Exercise: for every item that follows, state its recorded inhibition.
# ASSAY_SYSTEM: UniProtKB P23443
# Sequence (P23443 whole entry, looked up): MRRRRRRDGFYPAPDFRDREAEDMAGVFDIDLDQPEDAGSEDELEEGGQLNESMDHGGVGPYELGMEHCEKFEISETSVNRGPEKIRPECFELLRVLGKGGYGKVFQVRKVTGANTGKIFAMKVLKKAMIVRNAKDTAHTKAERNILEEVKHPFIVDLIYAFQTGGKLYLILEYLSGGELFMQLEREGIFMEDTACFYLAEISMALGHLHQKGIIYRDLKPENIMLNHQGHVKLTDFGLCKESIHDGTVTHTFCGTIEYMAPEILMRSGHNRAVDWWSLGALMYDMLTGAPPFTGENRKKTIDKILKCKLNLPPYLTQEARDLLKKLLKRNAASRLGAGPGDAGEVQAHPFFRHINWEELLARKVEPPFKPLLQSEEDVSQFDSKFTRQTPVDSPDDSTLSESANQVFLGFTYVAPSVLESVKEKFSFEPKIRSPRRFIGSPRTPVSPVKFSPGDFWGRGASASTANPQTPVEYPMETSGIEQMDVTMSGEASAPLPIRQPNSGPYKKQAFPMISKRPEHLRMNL
# PROTOCOL_SUMMARY: inhibition of human S6K1 enzyme activity – biochemical, LANCE Ultra TR-FRET (AID 1117328)
# TEST_SETTINGS: LANCE Ultra TR-FRET kinase assay, p70S6K1; at 20 µM (top of the series)
Numbers only, in %.

Some solved entries appear below for comparison.
{"CHEM_SMILES": "Nc1nc(=S)c2[nH]cnc2[nH]1", "ASSAY_SYSTEM": "UniProtKB P23443", "VALUE_REPORTED": 3.34}
{"CHEM_SMILES": "COC(=O)c1nc(Cl)c(Cl)nc1N", "ASSAY_SYSTEM": "UniProtKB P23443", "VALUE_REPORTED": 1.07}
{"CHEM_SMILES": "Cc1nc2ccc(CN(C)c3ccc(C(=O)N[C@@H](CCC(=O)O)C(=O)O)s3)cc2c(=O)[nH]1", "ASSAY_SYSTEM": "UniProtKB P23443", "VALUE_REPORTED": 26.6}

Each of the following entries comes with a recorded value; kindly state inhibition for each.
1. Oc1c(I)cc(I)c2cccnc12
2. CC[C@@]1(O)C(=O)OCc2c1cc1n(c2=O)Cc2c-1nc1ccccc1c2/C=N/OC(C)(C)C
3. Cc1ccc2nc(N)[nH]c(=O)c2c1Sc1ccncc1

[reply]
1. 1.27
2. -2.02
3. 50.1

# credit: PubChem BioAssay AID1117328
